- test_details: AUC (0 to 24 hrs) in rat at 0.32 mg/kg, po by cassette assay
- Format: ADME, organism-based
- Set-up: time < 24 hr, dose 0.32 mg/kg, route oral
- condition_details: plasma
Listed below: AUC(0-t) at 24 h values for each entry.
Numeric answer plus unit only.

Task: For the molecule shown here, CC(C)Sc1cc(-c2ccc(CCNC[C@H](O)c3ccccc3)cc2)ccc1C(=O)NS(C)(=O)=O.Cl , give the reported AUC(0-t) at 24 h.
Result: 108 ng·h/mL

Task: Entry CC(C)Cc1cc(-c2ccc(CCNC[C@H](O)c3ccccc3)cc2)ccc1C(=O)NS(C)(=O)=O.Cl : reported AUC(0-t) at 24 h = ?
Result: 64.8 ng·h/mL

Task: For the molecule CS(=O)(=O)NC(=O)c1ccc(-c2ccc(CCNC[C@H](O)c3cnccc3N)cc2)cc1OC1CCCCC1.Cl.Cl , what AUC(0-t) at 24 h is on record?
Result: 6.3 ng·h/mL

Task: Consider the molecule CC(C)Nc1cc(-c2ccc(CCNC[C@H](O)c3ccccc3)cc2)ccc1C(=O)NS(C)(=O)=O.Cl.Cl and give its measured AUC(0-t) at 24 h.
Result: 60.9 ng·h/mL

Task: Query (molecule): CS(=O)(=O)NC(=O)c1ccc(-c2ccc(CCNC[C@H](O)c3cccnc3)cc2)cc1OC1CCCCC1.Cl.Cl ; field requested: AUC(0-t) at 24 h
Result: 72.2 ng·h/mL

----------
// reported EC50 per item
- target_desc: Beta-3 adrenergic receptor (Homo sapiens, UniProt P13945)
- Sequence (P13945 whole entry): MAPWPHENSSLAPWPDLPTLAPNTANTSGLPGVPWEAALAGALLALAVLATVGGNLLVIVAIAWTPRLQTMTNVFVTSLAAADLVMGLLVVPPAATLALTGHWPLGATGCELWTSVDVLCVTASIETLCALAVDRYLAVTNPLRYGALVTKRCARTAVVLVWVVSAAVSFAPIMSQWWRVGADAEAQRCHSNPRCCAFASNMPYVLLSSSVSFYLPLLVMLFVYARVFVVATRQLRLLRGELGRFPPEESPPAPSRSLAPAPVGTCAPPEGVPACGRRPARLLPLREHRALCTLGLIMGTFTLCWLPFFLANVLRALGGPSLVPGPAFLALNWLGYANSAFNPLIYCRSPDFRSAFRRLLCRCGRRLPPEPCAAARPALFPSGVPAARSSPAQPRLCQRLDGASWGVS
- test_details: Agonist activity at human recombinant beta3 adrenergic receptor expressed in CHO cells assessed as cAMP accumulation by enzyme immunoassay
- Format: functional, cell-based
- condition_details: read-out: EC50
Give your result as the value with the unit written after it.

[
  {
    "smiles_string": "CC(C)Oc1cc(-c2ccc(CCNC[C@H](O)c3ccccc3)cc2)ccc1C(=O)NS(C)(=O)=O.Cl",
    "target_desc": "Beta-3 adrenergic receptor (Homo sapiens, UniProt P13945)",
    "EC50": "3100 pM"
  },
  {
    "smiles_string": "CS(=O)(=O)NC(=O)c1ccc(-c2ccc(CCNC[C@H](O)c3ccccc3)cc2)cc1C1CCCCC1.Cl",
    "target_desc": "Beta-3 adrenergic receptor (Homo sapiens, UniProt P13945)",
    "EC50": "330 pM"
  },
  {
    "smiles_string": "CC(C)Cc1cc(-c2ccc(CCNC[C@H](O)c3ccccc3)cc2)ccc1C(=O)NS(C)(=O)=O.Cl",
    "target_desc": "Beta-3 adrenergic receptor (Homo sapiens, UniProt P13945)",
    "EC50": "460 pM"
  }
]

Task: Any idea what EC50 was measured for CC(C)Sc1cc(-c2ccc(CCNC[C@H](O)c3cccnc3)cc2)ccc1C(=O)NS(C)(=O)=O.Cl.Cl ?
Result: 190 pM

----------
- test_details: Cmax in Beagle dog at 0.10 mg/kg, po by cassette assay
- Assay type: ADME, organism-based, Canis lupus familiaris
- Design: dose 0.1 mg/kg, route oral
- condition_details: in vivo, 0.1 mg/kg
Cmax: recorded values
Kindly provide the numeric value in ng/mL only, without the unit symbol.

Known results for compounds:
[
  {
    "smiles_string": "CCCSc1cc(-c2ccc(CCNC[C@H](O)c3ccccc3)cc2)ccc1C(=O)NS(C)(=O)=O.Cl",
    "unit_spec": "ng/mL",
    "Cmax": 8.1
  },
  {
    "smiles_string": "CS(=O)(=O)NC(=O)c1ccc(-c2ccc(CCNC[C@H](O)c3ccc(N)cc3)cc2)cc1OC1CCCCC1.Cl.Cl",
    "unit_spec": "ng/mL",
    "Cmax": 17.5
  },
  {
    "smiles_string": "CS(=O)(=O)NC(=O)c1ccc(-c2ccc(CCNC[C@H](O)c3ccccc3)cc2)cc1Oc1ccccc1.Cl",
    "unit_spec": "ng/mL",
    "Cmax": 70.3
  },
  {
    "smiles_string": "CC(C)Sc1cc(-c2ccc(CCNC[C@H](O)c3ccccc3)cc2)ccc1C(=O)NS(C)(=O)=O.Cl",
    "unit_spec": "ng/mL",
    "Cmax": 39.8
  },
  {
    "smiles_string": "CC(C)Nc1cc(-c2ccc(CCNC[C@H](O)c3cccnc3)cc2)ccc1C(=O)NS(C)(=O)=O.Cl.Cl.Cl",
    "unit_spec": "ng/mL",
    "Cmax": 1.9
  }
]

Task: Please give the measured Cmax for this compound: CC(C)Sc1cc(-c2ccc(CCNC[C@H](O)c3cccnc3)cc2)ccc1C(=O)NS(C)(=O)=O.Cl.Cl
Result: 5.3

Task: Which Cmax value is on record for CC(C)Oc1cc(-c2ccc(CCNC[C@H](O)c3ccccc3)cc2)ccc1C(=O)NS(C)(=O)=O.Cl ?
Result: 33.4

Task: I'd like to know its Cmax. The compound in question is CC(C)Cc1cc(-c2ccc(CCNC[C@H](O)c3cccnc3)cc2)ccc1C(=O)NS(C)(=O)=O.Cl.Cl
Result: 2.6

----------
- test_details: AUC (0 to 24 hrs) in Beagle dog at 0.10 mg/kg, po
- Assay type: ADME, organism-based, Canis lupus familiaris
- Parameters: time < 24 hr, dose 0.1 mg/kg, route oral
- condition_details: plasma, 0.1 mg/kg
test_readout: AUC(0-t) at 24 h (ng·h/mL)
Just the number please, in ng·h/mL, no unit attached.

Task: Look up AUC(0-t) at 24 h for this compound: CC(C)Sc1cc(-c2ccc(CCNC[C@H](O)c3ccccc3)cc2)ccc1C(=O)NS(C)(=O)=O.Cl
Result: 215

----------
Measured EC50 accompanies every entry in the list below.
- System: Canis familiaris
- test_details: Inhibition of carbachol-induced increase in intravesical pressure in intraduodenally dosed Beagle dog OAB model for 30 mins measured for 180 mins
- Type: functional, organism-based
- condition_details: Canis lupus familiaris
Write the answer as a number in nM, unit excluded.

[
  {
    "smiles_string": "O=C(O)c1ccc(-c2ccc(CCNC[C@H](O)c3cccnc3)cc2)cc1OC1CCCCC1",
    "test_readout": "EC50",
    "quantitative_result": 4
  },
  {
    "smiles_string": "CC(C)Sc1cc(-c2ccc(CCNC[C@H](O)c3ccccc3)cc2)ccc1C(=O)O",
    "test_readout": "EC50",
    "quantitative_result": 11.2
  },
  {
    "smiles_string": "CC(C)Cc1cc(-c2ccc(CCNC[C@H](O)c3ccccc3)cc2)ccc1C(=O)NS(C)(=O)=O.Cl",
    "test_readout": "EC50",
    "quantitative_result": 14.2
  },
  {
    "smiles_string": "CC(C)Cc1cc(-c2ccc(CCNC[C@H](O)c3ccccc3)cc2)ccc1C(=O)O",
    "test_readout": "EC50",
    "quantitative_result": 18.7
  }
]

Task: Can you share its EC50? I mean this molecule: CC(C)Sc1cc(-c2ccc(CCNC[C@H](O)c3ccccc3)cc2)ccc1C(=O)NS(C)(=O)=O.Cl
Result: 8.2

Task: Could you share which EC50 value was measured for CS(=O)(=O)NC(=O)c1ccc(-c2ccc(CCNC[C@H](O)c3cccnc3)cc2)cc1OC1CCCCC1.Cl.Cl ?
Result: 26.5

Task: Give the measured EC50 of CC(C)Nc1cc(-c2ccc(CCNC[C@H](O)c3ccccc3)cc2)ccc1C(=O)NS(C)(=O)=O.Cl.Cl .
Result: 7.1

----------
- test_details: Metabolic stability in human liver microsomes assessed as intrinsic clearance after 120 mins in presence of NADPH
- Assay type: ADME, Microsome
test_readout: CLint scaled (mL/min/kg)
Give your result in mL/min/kg as a bare value.

Task: Which CLint scaled is listed for CS(=O)(=O)NC(=O)c1ccc(-c2ccc(CCNC[C@H](O)c3cccnc3)cc2)cc1OC1CCCCC1.Cl.Cl ?
Result: 3.5

----------
compounds and their reported CLint scaled
- test_details: Metabolic stability in monkey liver microsomes assessed as intrinsic clearance after 120 mins in presence of NADPH
- Format: ADME, Macaca mulatta, Microsome
- condition_details: rhesus monkey
Response body: numeric value in mL/min/kg, unit text excluded.

[
  {
    "smiles_string": "CS(=O)(=O)NC(=O)c1ccc(-c2ccc(CCNC[C@H](O)c3cccnc3)cc2)cc1OC1CCCCC1.Cl.Cl",
    "CLint scaled (mL/min/kg)": 3.4
  }
]

Task: Name the reported CLint scaled value associated with the compound CC(C)Nc1cc(-c2ccc(CCNC[C@H](O)c3ccccc3)cc2)ccc1C(=O)NS(C)(=O)=O.Cl.Cl
Result: 5.4

----------
Documented CLint scaled across a set of molecules
- test_details: Metabolic stability in rat liver microsomes assessed as intrinsic clearance after 120 mins in presence of NADPH
- Assay type: ADME, Microsome
Could you give me the number in mL/min/kg? Just the number is fine.

[
  {
    "smiles_string": "CS(=O)(=O)NC(=O)c1ccc(-c2ccc(CCNC[C@H](O)c3cccnc3)cc2)cc1OC1CCCCC1.Cl.Cl",
    "CLint scaled (mL/min/kg)": 46.9
  },
  {
    "smiles_string": "CC(C)Nc1cc(-c2ccc(CCNC[C@H](O)c3ccccc3)cc2)ccc1C(=O)NS(C)(=O)=O.Cl.Cl",
    "CLint scaled (mL/min/kg)": 36
  }
]

// moving on: another record for CLint scaled
Task: What value of CLint scaled has been recorded for this entry: CC(C)Sc1cc(-c2ccc(CCNC[C@H](O)c3ccccc3)cc2)ccc1C(=O)NS(C)(=O)=O.Cl
Result: 84.3
